Just for reference, patent US20260092093A1 is where these values come from.

Target: T1, hIL-18BP-hFc (human, UniProt O95998 31-194, limits assumed)
T1 sequence (looked up): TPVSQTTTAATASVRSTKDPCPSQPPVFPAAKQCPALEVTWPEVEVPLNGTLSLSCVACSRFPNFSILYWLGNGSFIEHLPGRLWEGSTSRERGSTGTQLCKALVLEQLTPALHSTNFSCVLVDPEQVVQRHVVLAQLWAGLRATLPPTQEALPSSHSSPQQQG
Assay: cell-based or functional assay
attribute measured: EC50 (nM) in the Presence of 1 µg/mL hIL-18BP-hFc, hIL-18 reporter assay
Write the answer as a number in nM, unit excluded.

Provide EC50 (nM) in the Presence of 1 µg/mL hIL-18BP-hFc, hIL-18 reporter assay value for the following binder: IL-18 variant polypeptide M15 (ligand) YFPKLRSKLSVIRNLNDQVLFIDQGNRPLFEDMTDSDCRDNAPRTIFIISMYKSSYTRGMAVTISVKCEKISTLSCENKIISFKEMNPPDGIKDTKSDIIFFQRSVPGHDNKMQFESSSYEGYFLACEKERDLFKLILKKEDELGDRSIMFTVQNED
0.12

Provide EC50 (nM) in the Presence of 1 µg/mL hIL-18BP-hFc, hIL-18 reporter assay value for the following binder: IL-18 variant polypeptide MM6 (ligand) YFAKLYSKLSVIRNLNDQVLFIDQGNRPLFEDMTDSDCRDNAPRTIFIISMYKRSSLRGMAVTISVKCEKISTLSCENKIISFKEMNPPDAIKDTKSDIIFFQRSVPGHDNKMQFESSSYEGYFLACEKERDLFKLILKKEDELGDRSIMFTVQNED
1.5

***
Provide EC50 (nM) in the Presence of 1 µg/mL hIL-18BP-hFc, hIL-18 reporter assay value for the following binder: IL-18 variant polypeptide LM3 (ligand) YFPKLRSKLSIIRNLNDQVLFIDQGNRPLFEDMTDSDCRDNAPRTIFIISMYKGSGARGMAVTISVKCEKISTLSCENKIISFKEMNPPDGIKDTKSDIIFFQRSVPGHDNKMQFESSSYEGYFLACEKERDLFKLILKKEDELGDRSIMFTVQNED
0.069
